- Test system: SLC16A11
- test.method.notes: SLC16A11 protein-protein interaction study (immunoprecipitation, quantitative mass spectrometry)
- Parameters: species or system human
- study.conditions: putative SLC16A11^REF interaction partners; immunoprecipitation from HEK293T cells vs empty vector control; Blandt-Altman
Would you kindly list BA log fold change for each of these molecules?
Numbers only.

>>> experimental_value("QIL1 (protein) MVARVWSLMRFLIKGSVAGGAVYLVYDQELLGPSDKSQAALQKAGEVVPPAMYQFSQYVCQQTGLQIPQLPAPPKIYFPIRDSWNAGIMTVMSALSVAPSKAREYSKEGWEYVKARTK")
1.08
>>> experimental_value("EMC3 (protein) AGPELLLDSNIRLWVVLPIVIITFFVGMIRHYVSILLQSDKKLTQEQVSDSQVLIRSRVLRENGKYIPKQSFLTRKYYFNNPEDGFFKKTKRKVVPPSPMTDPTMLTDMMKGNVTNVLPMILIGGWINMTFSGFVTTKVPFPLTLRFKPMLQQGIELLTLDASWVSSASWYFLNVFGLRSIYSLILGQDNAADQSRMMQEQMTGAAMAMPADTNKAFKTEWEALELTDHQWALDDVEEELMAKDLHFEGMFKKELQTSIF")
1.65

For the next question, use this molecule.
**Query** Endpoint output: BA log fold change of PSMA3 (protein) SSIGTGYDLSASTFSPDGRVFQVEYAMKAVENSSTAIGIRCKDGVVFGVEKLVLSKLYEEGSNKRLFNVDRHVGMAVAGLLADARSLADIAREEASNFRSNFGYNIPLKHLADRVAMYVHAYTLYSAVRPFGCSFMLGSYSVNDGAQLYMIDPSGVSYGYWGCAIGKARQAAKTEIEKLQMKEMTCRDIVKEVAKIIYIVHDEVKDKAFELELSWVGELTNGRHEIVPKDIREEAEKYAKESLKEEDESDDDNM . Value?
**Result** 1.09
